Origin of values: patent USRE47150

Target: T1, mouse tissue factor pathway inhibitor (TFPI) (mouse, UniProt O54819 29-289, limits assumed)
T1 construct: bought; also called mTFPI; murine TFPI
T1 sequence (looked up): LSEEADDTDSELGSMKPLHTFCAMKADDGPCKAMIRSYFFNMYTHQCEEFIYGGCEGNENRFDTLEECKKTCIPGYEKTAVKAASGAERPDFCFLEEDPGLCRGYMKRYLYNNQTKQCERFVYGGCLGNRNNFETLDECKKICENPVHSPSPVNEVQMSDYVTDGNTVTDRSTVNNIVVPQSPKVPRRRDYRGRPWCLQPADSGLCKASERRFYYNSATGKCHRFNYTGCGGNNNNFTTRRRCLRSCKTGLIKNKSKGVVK
Assay: SPR, TFPI immobilized
A collection of binders and their measured kon
Note: unit M⁻¹ s⁻¹ is implicit; provide only the numeric part.

See these solved cases before continuing.
[[record]]
binder = "gB9.7 (4B7 HC Q1E+N32D+G44S+K55Y+D62R+Y112D/LC S32R+N35I) (Fab, V domains shown) VH: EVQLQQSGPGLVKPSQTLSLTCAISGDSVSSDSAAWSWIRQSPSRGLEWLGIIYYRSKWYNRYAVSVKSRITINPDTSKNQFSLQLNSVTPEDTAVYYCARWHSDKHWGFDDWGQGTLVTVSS VL: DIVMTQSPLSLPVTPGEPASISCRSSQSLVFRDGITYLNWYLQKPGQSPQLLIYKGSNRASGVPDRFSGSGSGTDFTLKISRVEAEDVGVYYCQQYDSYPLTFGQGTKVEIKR"
value_measured = 929000

[[record]]
binder = "B9.7 (4B7 HC N32D+D62R+Y112D/LC S32R+N35I) (Fab, V domains shown) VH: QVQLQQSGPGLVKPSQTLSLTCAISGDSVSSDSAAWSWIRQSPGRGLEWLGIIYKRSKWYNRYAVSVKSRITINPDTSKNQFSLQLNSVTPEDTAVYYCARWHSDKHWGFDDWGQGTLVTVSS VL: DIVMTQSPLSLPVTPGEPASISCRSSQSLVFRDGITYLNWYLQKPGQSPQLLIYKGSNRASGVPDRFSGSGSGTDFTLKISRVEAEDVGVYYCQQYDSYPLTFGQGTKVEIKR"
value_measured = "3.59e+06"

[[record]]
binder = "B18.5 (4B7 HC N32D+D62Q+Y112D/LC F31I+D33F+N35I) (Fab, V domains shown) VH: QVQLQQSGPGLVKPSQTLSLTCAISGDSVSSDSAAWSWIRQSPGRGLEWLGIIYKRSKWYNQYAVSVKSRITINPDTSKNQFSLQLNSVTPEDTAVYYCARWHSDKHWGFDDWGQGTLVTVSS VL: DIVMTQSPLSLPVTPGEPASISCRSSQSLVISFGITYLNWYLQKPGQSPQLLIYKGSNRASGVPDRFSGSGSGTDFTLKISRVEAEDVGVYYCQQYDSYPLTFGQGTKVEIKR"
value_measured = "1.09e+06"

[[record]]
binder = "B41.2 (4B7 HC N32D+D62R+Y112D/LC S32R+D33F+N35I) (Fab, V domains shown) VH: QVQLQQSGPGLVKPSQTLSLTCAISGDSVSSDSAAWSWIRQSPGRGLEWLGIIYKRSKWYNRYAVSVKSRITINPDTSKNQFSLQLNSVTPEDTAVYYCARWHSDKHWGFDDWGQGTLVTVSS VL: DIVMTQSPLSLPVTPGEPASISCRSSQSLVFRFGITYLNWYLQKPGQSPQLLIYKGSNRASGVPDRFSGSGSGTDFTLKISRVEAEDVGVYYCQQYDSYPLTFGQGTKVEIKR"
value_measured = "4.73e+06"

[[record]]
binder = "B2.0 (4B7 HC N32D+D62R+Y112D/LC S32R+D33F+N35I+D97T) (Fab, V domains shown) VH: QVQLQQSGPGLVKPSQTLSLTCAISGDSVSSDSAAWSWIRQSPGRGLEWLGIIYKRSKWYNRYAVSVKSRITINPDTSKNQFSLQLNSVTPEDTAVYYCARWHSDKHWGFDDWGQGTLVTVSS VL: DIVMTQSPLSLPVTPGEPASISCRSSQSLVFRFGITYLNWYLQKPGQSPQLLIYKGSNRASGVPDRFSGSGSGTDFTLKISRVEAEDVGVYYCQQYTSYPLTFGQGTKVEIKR"
value_measured = "6.99e+06"

[[record]]
binder = "B27.1 (4B7 HC N32D+D62R+Y112D/LC N35T+D97T) (Fab, V domains shown) VH: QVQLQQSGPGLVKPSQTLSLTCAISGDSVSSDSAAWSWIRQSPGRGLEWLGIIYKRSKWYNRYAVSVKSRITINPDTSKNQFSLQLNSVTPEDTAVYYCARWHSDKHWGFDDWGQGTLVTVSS VL: DIVMTQSPLSLPVTPGEPASISCRSSQSLVFSDGTTYLNWYLQKPGQSPQLLIYKGSNRASGVPDRFSGSGSGTDFTLKISRVEAEDVGVYYCQQYTSYPLTFGQGTKVEIKR"
value_measured = "4.06e+06"


The record that follows has no kon shown yet.
binder 4B7 wild-type Fab (Fab, V domains shown, Fab with HA (or c-myc) and 6xHis tag at the C-terminus of the heavy chain; also called 4B7wt; parental 4B7) VH: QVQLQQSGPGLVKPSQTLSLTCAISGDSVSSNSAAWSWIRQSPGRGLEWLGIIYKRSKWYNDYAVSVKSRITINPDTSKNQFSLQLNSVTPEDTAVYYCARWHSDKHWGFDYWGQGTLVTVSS VL: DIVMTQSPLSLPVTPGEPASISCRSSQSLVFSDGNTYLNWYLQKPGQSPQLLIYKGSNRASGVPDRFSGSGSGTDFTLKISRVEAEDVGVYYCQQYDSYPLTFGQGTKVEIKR , kon observed: 3.15e+06
